- assay_details: in vivo
- condition_details: female, Sprague-Dawley, rat, in vivo, iv, 1.5 mg/kg, 100 plasma concentration
quantity_name: concentration at 2 h (ng/mL)
Answer with a number only, understood to be in ng/mL.

Ask: What measured concentration at 2 h goes with CN1CCN(C(=O)C2C3CCC(O3)C2C(=O)O)CC1 (stereo not shown) [Compound 100] ?
Reply: 1310

----------
- assay_details: Pharmacokinetic study of 153 (and metabolite endothal) in SD rats, iv and po; plasma, liver, brain
- Type: in vivo
- condition_details: female, SD, rat, in vivo, iv, 1.25 mg/kg, iv 1.25 mg/kg, 1 hr, Rat 1; read-out: 153 plasma concentration
quantity_name: concentration at 1 h (ng/mL)
Answer with a number only, understood to be in ng/mL.

Ask: What measured concentration at 1 h goes with CCCOC(=O)C1C2CCC(O2)C1C(=O)N1CCN(C)CC1 (stereo not shown) [Compound 153] ?
Reply: 58

----------
- assay_details: Pharmacokinetic study of 157 (and metabolite endothal) in SD rats, iv and po; plasma, liver, brain
- Assay type: in vivo
- condition_details: female, SD, rat, in vivo, iv, 1.5 mg/kg, iv 1.5 mg/kg, 0.25 hr, Mean; read-out: 157 liver concentration
- Method: The blood, liver and brain tissue samples were collected at predetermined times from rats. […] Compound were diluted shortly before use in 4% sodium bicarbonate for sterile injection (this is the standard pediatric solution of NaHCO3 with a pH of about 8.5). Compound 153 was freshly prepared by diluting the drugs shortly before use in 4% sodium bicarbonate for sterile injection (this is the standard pediatric solution of NaHCO3 with a pH of about 8.5). […]
quantity_name: concentration at 0.25 h
Respond with a number, then the unit of measure.

Ask: What measured concentration at 0.25 h goes with CCCCCCCOC(=O)C1C2CCC(O2)C1C(=O)N1CCN(C)CC1 (stereo not shown) ?
Reply: 297 ng/g

----------
- assay_details: in vivo
- condition_details: female, Sprague-Dawley, rat, in vivo, iv, 1 mg/kg, 100 plasma concentration
quantity_name: concentration at 6 h (ng/mL)
Answer with a number only, understood to be in ng/mL.

Ask: What measured concentration at 6 h goes with CN1CCN(C(=O)C2C3CCC(O3)C2C(=O)O)CC1 (stereo not shown) [Compound 100] ?
Reply: 3.27

----------
- assay_details: Pharmacokinetic study of 153 (and metabolite endothal) in SD rats, iv and po; plasma, liver, brain
- Type: in vivo
- condition_details: female, SD, rat, in vivo, iv, 1.25 mg/kg, Liver, 1.25 mg/kg IV, rat 2; read-out: Cmax
quantity_name: Cmax (ng/g)
Answer with a number only, understood to be in ng/g.

Ask: What measured Cmax goes with CCCOC(=O)C1C2CCC(O2)C1C(=O)N1CCN(C)CC1 (stereo not shown) ?
Reply: 652

----------
- assay_details: Pharmacokinetic study of 100 (and metabolite endothal) in SD rats, iv; plasma, liver, brain
- condition_details: female, SD, rat, in vivo, iv, 1 mg/kg, Endothal liver concentration, 100 iv 1.0 mg/kg, SD rats, 24 hr, individual
quantity_name: concentration at 24 h
Respond with a number, then the unit of measure.

Ask: What measured concentration at 24 h goes with O=C(O)C1C2CCC(O2)C1C(=O)O (stereo not shown) [Endothal] ?
Reply: 66.6 ng/g

----------
- assay_details: in vivo
- condition_details: male, Sprague-Dawley, rat, in vivo, po, 10 mg/kg, AUC0-∞ of 100
quantity_name: AUC(0-inf) (ng·h/mL)
Answer with a number only, understood to be in ng·h/mL.

Ask: What measured AUC(0-inf) goes with CN1CCN(C(=O)C2C3CCC(O3)C2C(=O)O)CC1 (stereo not shown) ?
Reply: 2860

----------
- assay_details: Pharmacokinetic study of 153 (and metabolite endothal) in SD rats, iv and po; plasma, liver, brain
- Type: in vivo
- condition_details: female, Sprague-Dawley (SD), rat, in vivo; 153 in plasma, PO 1.25 mg/kg, Mean; read-out: Tmax
- Protocol: The blood, liver and brain tissue samples were collected at predetermined times from rats. […] Compound were diluted shortly before use in 4% sodium bicarbonate for sterile injection (this is the standard pediatric solution of NaHCO3 with a pH of about 8.5). Compound 153 was freshly prepared by diluting the drugs shortly before use in 4% sodium bicarbonate for sterile injection (this is the standard pediatric solution of NaHCO3 with a pH of about 8.5). […]
quantity_name: Tmax (min)
Answer with a number only, understood to be in min.

Ask: What measured Tmax goes with CCCOC(=O)C1C2CCC(O2)C1C(=O)N1CCN(C)CC1 (stereo not shown) [Compound 153] ?
Reply: 30

----------
- assay_details: in vivo
- condition_details: male, Sprague-Dawley, rat, in vivo, iv, 1 mg/kg, Cmax of 100
quantity_name: Cmax (ng/mL)
Answer with a number only, understood to be in ng/mL.

Ask: What measured Cmax goes with CN1CCN(C(=O)C2C3CCC(O3)C2C(=O)O)CC1 (stereo not shown) ?
Reply: 646

----------
- assay_details: Pharmacokinetic study of 100 (and metabolite endothal) in SD rats, iv; plasma, liver, brain
- condition_details: female, SD, rat, in vivo, iv, 0.5 mg/kg, Endothal liver concentration, 100 iv 0.5 mg/kg, SD rats, 2 hr, mean
quantity_name: concentration at 2 h (ng/g)
Answer with a number only, understood to be in ng/g.

Ask: What measured concentration at 2 h goes with O=C(O)C1C2CCC(O2)C1C(=O)O (stereo not shown) [Endothal] ?
Reply: 220

----------
- assay_details: Pharmacokinetic study of 157 (and metabolite endothal) in SD rats, iv and po; plasma, liver, brain
- Assay type: in vivo
- condition_details: female, Sprague-Dawley (SD), rat, in vivo, iv, 1.5 mg/kg, 157 in Liver, iv 1.5 mg/kg, Mean; read-out: T1/2 (converted)
quantity_name: half-life (min)
Answer with a number only, understood to be in min.

Ask: What measured half-life goes with CCCCCCCOC(=O)C1C2CCC(O2)C1C(=O)N1CCN(C)CC1 (stereo not shown) ?
Reply: 48.8

----------
- assay_details: in vivo
- condition_details: female, SD, rat, in vivo, iv, 1.5 mg/kg
quantity_name: AUC(0-t) (ng·h/mL)
Answer with a number only, understood to be in ng·h/mL.

Ask: What measured AUC(0-t) goes with CN1CCN(C(=O)C2C3CCC(O3)C2C(=O)O)CC1 (stereo not shown) ?
Reply: 7400

----------
- assay_details: in vivo
- condition_details: male, Sprague-Dawley, rat, in vivo, iv, 1 mg/kg, T1/2 of 100
quantity_name: half-life (min)
Answer with a number only, understood to be in min.

Ask: What measured half-life goes with CN1CCN(C(=O)C2C3CCC(O3)C2C(=O)O)CC1 (stereo not shown) [Compound 100] ?
Reply: 52.8

----------
- assay_details: Pharmacokinetic study of 157 (and metabolite endothal) in SD rats, iv and po; plasma, liver, brain
- Type: in vivo
- condition_details: female, Sprague-Dawley (SD), rat, in vivo, iv
quantity_name: Cmax (ng/g)
Answer with a number only, understood to be in ng/g.

Ask: What measured Cmax goes with O=C(O)C1C2CCC(O2)C1C(=O)O (stereo not shown) [Endothal] ?
Reply: 3720

----------
- assay_details: Pharmacokinetic study of 157 (and metabolite endothal) in SD rats, iv and po; plasma, liver, brain
- Assay type: in vivo
- condition_details: female, SD (Sprague-Dawley), rat, in vivo, iv, 1.5 mg/kg, 157 in plasma, IV 1.5 mg/kg, rat 1; read-out: Cmax
quantity_name: Cmax (ng/mL)
Answer with a number only, understood to be in ng/mL.

Ask: What measured Cmax goes with CCCCCCCOC(=O)C1C2CCC(O2)C1C(=O)N1CCN(C)CC1 (stereo not shown) ?
Reply: 116

----------
- assay_details: Pharmacokinetic study of 153 (and metabolite endothal) in SD rats, iv and po; plasma, liver, brain
- Format: in vivo
- condition_details: female, SD, rat, in vivo, iv, 1.25 mg/kg, iv 1.25 mg/kg, 1 hr, Mean; read-out: 153 liver concentration
quantity_name: concentration at 1 h (ng/g)
Answer with a number only, understood to be in ng/g.

Ask: What measured concentration at 1 h goes with CCCOC(=O)C1C2CCC(O2)C1C(=O)N1CCN(C)CC1 (stereo not shown) [Compound 153] ?
Reply: 126

----------
- assay_details: Pharmacokinetic study of 153 (and metabolite endothal) in SD rats, iv and po; plasma, liver, brain
- Assay type: in vivo
- condition_details: female, SD, rat, in vivo, iv, 1.25 mg/kg, iv 1.25 mg/kg, 2 hr, Mean; read-out: 153 liver concentration
quantity_name: concentration at 2 h (ng/g)
Answer with a number only, understood to be in ng/g.

Ask: What measured concentration at 2 h goes with CCCOC(=O)C1C2CCC(O2)C1C(=O)N1CCN(C)CC1 (stereo not shown) ?
Reply: 41.6
